The reader will find reported melting point values listed item by item below.

Recorded melting point, per entry:
CCOc1cc([C@@H](CS(C)(=O)=O)N2Cc3cccc(NCC(C)C)c3C2=O)ccc1OC [Example 5]
122 to 124 °C
CCOc1cc([C@@H](CS(C)(=O)=O)N2Cc3cccc(NC(=O)N(C)C)c3C2=O)ccc1OC [Example 16]
170 to 172 °C
CCOc1cc([C@@H](CC(=O)N(C)C)N2Cc3cccc(NCC(C)(C)C)c3C2=O)ccc1OC [Example 6]
111 to 113 °C
CCOc1cc([C@@H](CS(C)(=O)=O)N2C(=O)c3cccc(NC(=O)c4ccco4)c3C2=O)ccc1OC [Example 2]
184 to 186 °C
CCOc1cc([C@@H](CS(C)(=O)=O)N2C(=O)c3cccc(NC(=O)COC)c3C2=O)ccc1OC [Example 3]
151 to 153 °C
COc1ccc(C(CS(C)(=O)=O)N2C(=O)c3cccc(NC(C)=O)c3C2=O)cc1OCC1CC1 (stereo not drawn) [Example 13]
102 to 104 °C
CCOc1cc([C@@H](CS(C)(=O)=O)N2Cc3cccc(NCC4CC4)c3C2=O)ccc1OC [Example 4]
147 to 149 °C
CCOc1cc(C(CC#N)N2C(=O)c3ccc4ccccc4c3C2=O)ccc1OC (stereo not drawn) [Example 1]
163 to 165 °C

Switching to the query record.
Problem: Requested read-out: melting point. Entry: CCOc1cc([C@@H](CC(=O)N(C)C)N2Cc3cccc(NC(=O)N(C)C)c3C2=O)ccc1OC [Example 15]
Result: 105 to 107 °C

// provenance: patent US8026269B2
